B1: ZNF263 (parent)
chain: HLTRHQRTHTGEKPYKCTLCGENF

Variants of: B1
procedure-details: protein stability index of a GFP-peptide fusion (GPS, HEK-293T) (PSI 1-6); higher = more stable;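 also: lentivirally expressed fusions sorted by FACS into six bins by GFP to DsRed ratio, PSI derived from sequencing read proportions per bin multiplied by bin number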
experimental-context: c terminus: a fixed tail appended
Label N if protein stability index falls below 3; label Y in every other case.

State whether the measured protein stability index reaches 3, counting equality as reaching it, for C20F
N

State whether the measured protein stability index reaches 3, counting equality as reaching it, for K13C
Y

State whether the measured protein stability index reaches 3, counting equality as reaching it, for G11P
N

State whether the measured protein stability index reaches 3, counting equality as reaching it, for N23K
Y

State whether the measured protein stability index reaches 3, counting equality as reaching it, for G11A
Y

State whether the measured protein stability index reaches 3, counting equality as reaching it, for L19S
Y

State whether the measured protein stability index reaches 3, counting equality as reaching it, for R4W
N

State whether the measured protein stability index reaches 3, counting equality as reaching it, for E22W
N

State whether the measured protein stability index reaches 3, counting equality as reaching it, for Q6R
Y

State whether the measured protein stability index reaches 3, counting equality as reaching it, for L19G
N
